Target: T1, hCMV gH, gL, UL128, UL130 and UL131A co-expressed in HEK293T cells (human cytomegalovirus, UniProt P12824 24-743; P16832 31-278; P16837 1-171; P16772 1-214)
T1 construct: whole, on cells; also called gH + gL + UL128 + UL130 + UL131A; gH/gL/UL128-130 complex
Experiment: cell cross-competition, 20x excess; competitor 4N10-biotin
Readings of Inhibition of binding (%) for the listed binders
Just the number plus its unit, please.

{"columns": ["Binder", "Measured value"],
 "data": [
  ["15D8 (antibody, V domains shown, human IgG mAb; also called 15D8-biotin) VH: EVQLVQSGAEVKKPGESLKISCQASGYSFTNYWIAWVRQMPGKGLEWMGIIYPGDSDIKYSPSFRGQVTISADKSISNAFLQWRSLRASDTAMYYCARHAIRGDGFDYWGQGTLVTVSS VL: SYELTQPPSVSVSPGQTATITCSGDKLGEKYACWYQQKPGQSPVLVMYQDTKRPSGIPERFSGSNSGNTATLTISGTRAMDEADYYCQAWDTNTVIFGGGTKLTVL", "0%"],
  ["2C12 (antibody, V domains shown, human IgG mAb; also called 2C12-biotin) VH: QITLRESGPTLVKPTQTLTLTCTFSGFSLNTNGVGVGWIRQPPGKALEWLALIYWNGNEGYSPSLKSRLTITKDTSKNQVVLTMTNMDPVDTATYYCVHWPQGLTTVTRLAFDIWGQGTMVTVSS VL: QSALTQPRSVSGSPGQSVTISCTGTTSDVGRYNFVSWYQQHPGKAPKLLMYDVSQRPSGVPSRFSGSKSGNTASLTISGLQAEDEAVFYCCSYAGGNFFSYVFGTGTKVTVL", "0%"],
  ["4N10 (antibody, V domains shown, human IgG mAb; also called 4N10-biotin) VH: QVQLVQSGAEVKKPGSSVRVSCKASGGTFSSYVIIWVRQAPGQGLEWMGGVIPIFDTVNYAQKFQGRVTITADESTSTAYMELSSLKSEDTAVYYCARGILAYCGGDCYNTPYGMDVWGQGTTVTVSS VL: DIQMTQSPSILSASVGDRVTITCRASQSISSWLAWYQQKPGKAPKLLIYKASSLEIGVPSRISGSGSGTEFTLTISSLQPDDFATYYCQQYNSSWTFGQGTKVEIK", "100%"],
  ["10F7 (antibody, V domains shown, human IgG mAb; also called 10F7-biotin) VH: EVQLVESGGGLVQPGRSLRLSCTASGFTFGDYAMSWFRQAPGKGLEWVGFIRSKAYGGTTEYAASVKGRFTISRDDSKSIAYLQMNSLKTEDTAVYYCTRASSLLWLLNPQPNFDYWGQGTLVTVSS VL: SYVLTQPPSVSVAPGQTARITCGGNNIGSNNVHWYQQKPGQAPVLVVYDDSDRPSGIPERFSGSNSGNTATLTISRVEAGDEADYYCQVWDSSSDHPVFGGGTKLTVL", "0%"]
]}

// returns reported Inhibition of binding (%) for input 4I22 (antibody, V domains shown, human IgG mAb; also called 4I22-biotin) VH: QVQLVESGGGVVQPGRSLRLSCVASGFTFSSYAMHWVRQAPGKGLEWVAVISYDGDNKFYADSVKGRFRISRDTSKNTLYLEMNSLRAADTAIYYCAREELVGLMPPYYNYGLDVWGQGTTVTVSS VL: QSVLTQPPSVSAAPGQKVTISCSGSNSNIGNNYVSWYQQLPGRAPKLLIYDNDHRPSGIPDRFSGSKSGTSATLVITGLQTGDEADYYCETWDTSLSAAVVFGGGTKLTVL
0%
